# key: entry, value: viability at 18 h, 5 µM
assay info: Cytotoxicity against C57BL/6 mouse primary BMDC assessed as cell viability at 5 uM after 18 hrs by MTT assay relative to control
Format: cell-based
recorded conditions: primary BMDC (bone marrow-derived dendritic cells), read-out: Activity

Known results for compounds:
>  <structure as smiles>
Cn1c2ccc(C#C[Si](C)(C)C)cc2c2nc(SCC(=O)NC3CCCCC3)n(-c3ccccc3)c(=O)c21

>  <viability at 18 h, 5 µM>
73%

$$$$
>  <structure as smiles>
Cn1c2ccc(N)cc2c2nc(SCC(=O)NC3CCCCC3)n(-c3ccccc3)c(=O)c21

>  <viability at 18 h, 5 µM>
102%

$$$$
>  <structure as smiles>
Cn1c2ccc(I)cc2c2nc(SCC(=O)NC3CCCCC3)n(-c3ccccc3)c(=O)c21

>  <viability at 18 h, 5 µM>
75%

$$$$
>  <structure as smiles>
CCCCCCCC(=O)Nc1ccc2c(c1)c1nc(SCC(=O)NC3CCCCC3)n(-c3ccccc3)c(=O)c1n2C

>  <viability at 18 h, 5 µM>
35%

$$$$
>  <structure as smiles>
Cn1c2cc(C#N)ccc2c2nc(SCC(=O)NC3CCCCC3)n(-c3ccccc3)c(=O)c21

>  <viability at 18 h, 5 µM>
65%

$$$$
>  <structure as smiles>
C#Cc1ccc2c(c1)c1nc(SCC(=O)NC3CCCCC3)n(-c3ccccc3)c(=O)c1n2C

>  <viability at 18 h, 5 µM>
81%

$$$$

Returns the measured viability at 18 h, 5 µM for the input compound. Input: Cc1c(C)n(C)c2c(=O)n(-c3ccccc3)c(SCC(=O)NC3CCCCC3)nc12
100%

Returns the measured viability at 18 h, 5 µM for the input compound. Input: O=C(CSc1nc2c3c([nH]c2c(=O)n1-c1ccccc1)CCCC3)NC1CCCCC1
91%

###

system under test: Toll-like receptor 4 (Mus musculus)
Sequence (Q9QUK6 whole entry): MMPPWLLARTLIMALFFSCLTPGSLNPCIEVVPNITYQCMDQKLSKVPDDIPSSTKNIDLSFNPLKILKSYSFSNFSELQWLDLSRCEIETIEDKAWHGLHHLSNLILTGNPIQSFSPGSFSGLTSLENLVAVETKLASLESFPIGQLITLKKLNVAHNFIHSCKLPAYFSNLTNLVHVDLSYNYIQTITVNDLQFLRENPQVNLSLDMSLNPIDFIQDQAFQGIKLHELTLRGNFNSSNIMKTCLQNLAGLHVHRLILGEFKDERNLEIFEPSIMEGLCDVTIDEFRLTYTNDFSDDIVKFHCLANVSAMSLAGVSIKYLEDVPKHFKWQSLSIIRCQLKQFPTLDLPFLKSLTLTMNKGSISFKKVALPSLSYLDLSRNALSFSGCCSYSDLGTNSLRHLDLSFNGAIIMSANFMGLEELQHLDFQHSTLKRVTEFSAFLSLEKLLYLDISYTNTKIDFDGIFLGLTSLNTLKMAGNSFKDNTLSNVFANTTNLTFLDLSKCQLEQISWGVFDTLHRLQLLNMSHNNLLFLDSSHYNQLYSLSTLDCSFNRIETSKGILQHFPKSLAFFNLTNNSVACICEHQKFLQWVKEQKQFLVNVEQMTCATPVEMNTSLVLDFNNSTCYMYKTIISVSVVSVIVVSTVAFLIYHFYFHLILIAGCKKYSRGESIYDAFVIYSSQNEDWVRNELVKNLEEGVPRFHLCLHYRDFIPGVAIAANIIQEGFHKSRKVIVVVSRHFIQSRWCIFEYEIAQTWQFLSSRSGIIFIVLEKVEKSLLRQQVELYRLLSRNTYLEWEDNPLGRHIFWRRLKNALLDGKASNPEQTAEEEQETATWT
assay info: Agonist activity at mouse TLR4 expressed in HEK293 blue cells assessed as induction of NF-kappaB activation-mediated SEAP production after 20 to 24 hrs by colorimetric assay
# key: entry, value: EC50

Known results for compounds:
>  <structure as smiles>
Cn1c2ccc(C#N)cc2c2nc(SCC(=O)NC3CCCCC3)n(-c3ccccc3)c(=O)c21

>  <system under test>
Toll-like receptor 4 (Mus musculus)

>  <EC50>
> 10 µM

$$$$
>  <structure as smiles>
O=C(CSc1nc2c3c([nH]c2c(=O)n1-c1ccccc1)CCCC3)NC1CCCCC1

>  <system under test>
Toll-like receptor 4 (Mus musculus)

>  <EC50>
7.12 µM

$$$$
>  <structure as smiles>
Cn1c2c(c3nc(SCC(=O)NC4CCCCC4)n(-c4ccccc4)c(=O)c31)CCCCC2

>  <system under test>
Toll-like receptor 4 (Mus musculus)

>  <EC50>
8.8 µM

$$$$
>  <structure as smiles>
O=C(CSc1nc2c3c([nH]c2c(=O)n1-c1ccccc1)CCCCC3)NC1CCCCC1

>  <system under test>
Toll-like receptor 4 (Mus musculus)

>  <EC50>
2.83 µM

$$$$
>  <structure as smiles>
Cn1c2ccccc2c2nc(OCC(=O)NC3CCCCC3)n(-c3ccccc3)c(=O)c21

>  <system under test>
Toll-like receptor 4 (Mus musculus)

>  <EC50>
> 10 µM

$$$$

From here, focus on the item given below.
Returns the measured EC50 for the input compound. Input: Cn1c2c(c3nc(SCC(=O)NC4CCCCC4)n(-c4ccccc4)c(=O)c31)CCCC2
> 10 µM

###

system under test: Toll-like receptor 4 (Mus musculus)
assay info: Agonist activity at mouse TLR4 expressed in HEK293 blue cells assessed as induction of NF-kappaB activation-mediated SEAP production by measuring AUC after 20 to 24 hrs by colorimetric assay relative to N-cyclohexyl-2-(5-methyl-4-oxo-3-phenyl-4,5-dihydro-3H-pyrimido[5,4-b]indol-2-ylthio)acetamide
Format: cell-based
measure: Activity
Please provide the amount together with its unit, number first.

Returns the measured Activity for the input compound. Input: Cn1c2cc(C#N)ccc2c2nc(SCC(=O)NC3CCCCC3)n(-c3ccccc3)c(=O)c21
6%

Returns the measured Activity for the input compound. Input: Cn1ccc2nc(SCC(=O)NC3CCCCC3)n(-c3ccccc3)c(=O)c21
5%

Returns the measured Activity for the input compound. Input: Cn1c2ccccc2c2nc(NCCC(=O)NC3CCCCC3)n(-c3ccccc3)c(=O)c21
2%

Returns the measured Activity for the input compound. Input: Cn1c2ccc(Br)cc2c2nc(SCC(=O)NC3CCCCC3)n(-c3ccccc3)c(=O)c21
103%

Returns the measured Activity for the input compound. Input: Cn1c2ccc(NC(=O)CCC(=O)O)cc2c2nc(SCC(=O)NC3CCCCC3)n(-c3ccccc3)c(=O)c21
3%

Returns the measured Activity for the input compound. Input: O=C(CCSc1nc2c([nH]c3ccccc32)c(=O)n1-c1ccccc1)NC1CCCCC1
3%

Returns the measured Activity for the input compound. Input: CCCCCCCC(=O)Nc1ccc2c(c1)c1nc(SCC(=O)NC3CCCCC3)n(-c3ccccc3)c(=O)c1n2C
1%

Returns the measured Activity for the input compound. Input: Cn1c2ccc(N)cc2c2nc(SCC(=O)NC3CCCCC3)n(-c3ccccc3)c(=O)c21
3%

###

system under test: Toll-like receptor 4 (Mus musculus) (UniProt Q9QUK6)
Sequence (whole entry): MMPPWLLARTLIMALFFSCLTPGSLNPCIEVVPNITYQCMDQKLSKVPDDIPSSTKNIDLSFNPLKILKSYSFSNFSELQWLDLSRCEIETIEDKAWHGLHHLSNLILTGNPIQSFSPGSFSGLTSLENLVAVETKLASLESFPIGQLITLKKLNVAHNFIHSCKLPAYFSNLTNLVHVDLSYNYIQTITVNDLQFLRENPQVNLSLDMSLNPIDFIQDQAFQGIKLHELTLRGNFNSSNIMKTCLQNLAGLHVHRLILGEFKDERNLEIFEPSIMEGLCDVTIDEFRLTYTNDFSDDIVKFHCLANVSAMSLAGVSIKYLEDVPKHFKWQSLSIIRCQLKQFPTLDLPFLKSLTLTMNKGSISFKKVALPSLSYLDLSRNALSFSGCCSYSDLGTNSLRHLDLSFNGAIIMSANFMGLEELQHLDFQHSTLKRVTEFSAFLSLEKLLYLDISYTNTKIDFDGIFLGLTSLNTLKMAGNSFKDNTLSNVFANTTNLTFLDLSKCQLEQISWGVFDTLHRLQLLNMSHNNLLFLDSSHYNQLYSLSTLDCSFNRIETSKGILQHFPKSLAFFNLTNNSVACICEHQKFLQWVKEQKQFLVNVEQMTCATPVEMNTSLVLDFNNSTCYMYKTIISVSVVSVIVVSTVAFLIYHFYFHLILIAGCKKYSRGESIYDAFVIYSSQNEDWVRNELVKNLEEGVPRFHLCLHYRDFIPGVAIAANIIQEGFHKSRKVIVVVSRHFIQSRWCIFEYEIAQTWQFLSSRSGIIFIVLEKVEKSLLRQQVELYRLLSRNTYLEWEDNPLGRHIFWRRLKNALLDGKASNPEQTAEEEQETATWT
assay info: Agonist activity at TLR4 in C57BL/6 mouse primary BMDC assessed as induction of IL-6 release at 5 uM after 18 hrs by ELISA relative to N-cyclohexyl-2-(5-methyl-4-oxo-3-phenyl-4,5-dihydro-3H-pyrimido[5,4-b]indol-2-ylthio)acetamide
measure: Activity (%)
Quick note: give the figure in %, leave out the unit.

Known results for compounds:
>  <structure as smiles>
Cn1c2cc(C#N)ccc2c2nc(SCC(=O)NC3CCCCC3)n(-c3ccccc3)c(=O)c21

>  <endpoint unit>
%

>  <Activity>
3

$$$$
>  <structure as smiles>
Cn1c2ccc(-c3ccccc3)cc2c2nc(SCC(=O)NC3CCCCC3)n(-c3ccccc3)c(=O)c21

>  <endpoint unit>
%

>  <Activity>
123

$$$$
>  <structure as smiles>
Cn1c2ccc(C#N)cc2c2nc(SCC(=O)NC3CCCCC3)n(-c3ccccc3)c(=O)c21

>  <endpoint unit>
%

>  <Activity>
45

$$$$
>  <structure as smiles>
O=C(CCSc1nc2c([nH]c3ccccc32)c(=O)n1-c1ccccc1)NC1CCCCC1

>  <endpoint unit>
%

>  <Activity>
0

$$$$
>  <structure as smiles>
Cn1c2ccc(C#C[Si](C)(C)C)cc2c2nc(SCC(=O)NC3CCCCC3)n(-c3ccccc3)c(=O)c21

>  <endpoint unit>
%

>  <Activity>
78

$$$$

Query for Toll-like receptor 4 (Mus musculus) (UniProt Q9QUK6): what Activity does the record show for O=C(CCCSc1nc2c([nH]c3ccccc32)c(=O)n1-c1ccccc1)NC1CCCCC1 ?
0

Query for Toll-like receptor 4 (Mus musculus) (UniProt Q9QUK6): what Activity does the record show for O=C(CSc1nc2cc[nH]c2c(=O)n1-c1ccccc1)NC1CCCCC1 ?
0

Query for Toll-like receptor 4 (Mus musculus) (UniProt Q9QUK6): what Activity does the record show for Cn1c2ccc(-c3ccc4ccccc4c3)cc2c2nc(SCC(=O)NC3CCCCC3)n(-c3ccccc3)c(=O)c21 ?
137

Query for Toll-like receptor 4 (Mus musculus) (UniProt Q9QUK6): what Activity does the record show for Cn1c2c(c3nc(SCC(=O)NC4CCCCC4)n(-c4ccccc4)c(=O)c31)CCCC2 ?
65

Query for Toll-like receptor 4 (Mus musculus) (UniProt Q9QUK6): what Activity does the record show for Cn1c2ccc(I)cc2c2nc(SCC(=O)NC3CCCCC3)n(-c3ccccc3)c(=O)c21 ?
74

Query for Toll-like receptor 4 (Mus musculus) (UniProt Q9QUK6): what Activity does the record show for Cn1c2ccc(-c3cccc4ccccc34)cc2c2nc(SCC(=O)NC3CCCCC3)n(-c3ccccc3)c(=O)c21 ?
80

Query for Toll-like receptor 4 (Mus musculus) (UniProt Q9QUK6): what Activity does the record show for C#Cc1ccc2c(c1)c1nc(SCC(=O)NC3CCCCC3)n(-c3ccccc3)c(=O)c1n2C ?
92

Query for Toll-like receptor 4 (Mus musculus) (UniProt Q9QUK6): what Activity does the record show for CCCCCCCC(=O)Nc1ccc2c(c1)c1nc(SCC(=O)NC3CCCCC3)n(-c3ccccc3)c(=O)c1n2C ?
0

Query for Toll-like receptor 4 (Mus musculus) (UniProt Q9QUK6): what Activity does the record show for Cn1c2ccccc2c2nc(OCC(=O)NC3CCCCC3)n(-c3ccccc3)c(=O)c21 ?
0

Query for Toll-like receptor 4 (Mus musculus) (UniProt Q9QUK6): what Activity does the record show for Cn1c2ccccc2c2nc(NCC(=O)NC3CCCCC3)n(-c3ccccc3)c(=O)c21 ?
1

Query for Toll-like receptor 4 (Mus musculus) (UniProt Q9QUK6): what Activity does the record show for Cn1c2ccccc2c2nc(NCCC(=O)NC3CCCCC3)n(-c3ccccc3)c(=O)c21 ?
0

Query for Toll-like receptor 4 (Mus musculus) (UniProt Q9QUK6): what Activity does the record show for Cn1c2c(c3nc(SCC(=O)NC4CCCCC4)n(-c4ccccc4)c(=O)c31)CCCCC2 ?
93

Query for Toll-like receptor 4 (Mus musculus) (UniProt Q9QUK6): what Activity does the record show for Cn1c2ccc(-c3ccc(-c4ccccc4)cc3)cc2c2nc(SCC(=O)NC3CCCCC3)n(-c3ccccc3)c(=O)c21 ?
0
